Hey, just so you know, these numbers are from patent US4124710A.

# System: male rats in which chronic renal hypertension had been induced
# measurement protocol: Fall in arterial pressure in rats rendered hypertensive by the GROLLMAN method (chronic renal hypertension)
# Type: in vivo, rat
# recorded conditions: 25 mg/kg, intragastric; measured before and 1-6 hours after administration
measured parameter: Fall in A.P.
Entry format: amount then unit.

Solved entries:
> print(dat)
                                   molecule  data.value
1     CCc1oc2ccc(Cl)cc2c1CC(=NO)NCCN1CCOCC1    21 mm.Hg
2          Cc1oc2ccccc2c1CC(=NO)NCCN1CCOCC1    25 mm.Hg
3  CCc1oc2ccccc2c1CC(=NO)NCCN1CCOCC1 [L 9552]    36 mm.Hg

Find the recorded Fall in A.P. belonging to CCCCN(CCCC)CCNC(Cc1c(CC)oc2ccccc12)=NO and report it.
27 mm.Hg
